Some compounds, each annotated with its measured inhibition at 100 µM.
Biological target: PTP receptor type O (PTPRO) (Homo sapiens)
Sequence (Q16827 30-1216): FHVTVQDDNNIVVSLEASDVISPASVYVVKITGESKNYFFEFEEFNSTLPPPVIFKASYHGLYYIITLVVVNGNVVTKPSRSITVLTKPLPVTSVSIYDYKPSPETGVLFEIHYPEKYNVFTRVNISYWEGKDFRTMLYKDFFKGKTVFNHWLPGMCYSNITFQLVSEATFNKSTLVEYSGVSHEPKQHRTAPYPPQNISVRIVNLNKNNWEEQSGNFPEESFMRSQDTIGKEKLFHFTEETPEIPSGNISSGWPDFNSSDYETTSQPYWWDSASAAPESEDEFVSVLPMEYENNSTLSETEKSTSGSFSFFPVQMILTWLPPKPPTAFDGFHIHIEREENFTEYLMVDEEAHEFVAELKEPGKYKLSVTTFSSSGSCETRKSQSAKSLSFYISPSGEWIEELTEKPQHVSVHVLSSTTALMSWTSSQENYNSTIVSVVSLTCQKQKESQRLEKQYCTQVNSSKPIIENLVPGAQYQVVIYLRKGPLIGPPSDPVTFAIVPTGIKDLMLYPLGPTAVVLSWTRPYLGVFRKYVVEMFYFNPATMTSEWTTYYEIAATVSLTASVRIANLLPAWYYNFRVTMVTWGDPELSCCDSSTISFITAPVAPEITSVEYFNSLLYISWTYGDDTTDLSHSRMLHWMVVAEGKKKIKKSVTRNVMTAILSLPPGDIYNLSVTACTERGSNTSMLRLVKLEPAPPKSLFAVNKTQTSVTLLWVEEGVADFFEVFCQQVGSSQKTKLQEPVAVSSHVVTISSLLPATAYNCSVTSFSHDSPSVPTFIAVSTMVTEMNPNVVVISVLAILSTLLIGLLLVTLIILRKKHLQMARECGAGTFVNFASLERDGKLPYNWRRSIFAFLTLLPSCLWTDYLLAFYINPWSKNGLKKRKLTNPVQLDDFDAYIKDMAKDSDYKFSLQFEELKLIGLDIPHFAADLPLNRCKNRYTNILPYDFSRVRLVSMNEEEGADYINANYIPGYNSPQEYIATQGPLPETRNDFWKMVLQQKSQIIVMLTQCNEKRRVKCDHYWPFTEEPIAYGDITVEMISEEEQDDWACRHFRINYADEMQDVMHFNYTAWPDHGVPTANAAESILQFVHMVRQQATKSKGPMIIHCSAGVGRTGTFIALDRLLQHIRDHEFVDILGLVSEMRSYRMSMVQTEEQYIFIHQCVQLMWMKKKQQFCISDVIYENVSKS
Experiment: Selectivity inhibition assay against PTPRO
Type: biochemical
Conditions: inhibitor 100 μM, duplicates; read-out: % inhibition at 100 μM for PTPRO

COMPOUND: COC(=O)c1cccc(-c2ccc(/C=C3\C(=O)N(c4cccc(C(=O)O)c4)N=C3C)o2)c1 [Compound 6]
inhibition at 100 µM: 81.2%
//
COMPOUND: COc1cccc(-c2nn(-c3ccccc3)cc2/C=C2\SC(=S)N(CCC(=O)O)C2=O)c1 [Compound 4]
inhibition at 100 µM: 95%
//
COMPOUND: O=C(O)CCN1C(=O)/C(=C\c2cccc(Oc3ccccc3)c2)SC1=S [Compound 5]
inhibition at 100 µM: 95%
//
COMPOUND: CN1C(=O)/C(=C/c2ccc(OCc3cccc([N+](=O)[O-])c3)cc2)S/C1=N/c1cccc(C(=O)O)c1 [Compound 3]
inhibition at 100 µM: 48.7%
//
COMPOUND: O=C1NC(=S)S/C1=C\c1cn(-c2ccccc2)nc1-c1ccccc1 [Compound 2]
inhibition at 100 µM: 94.2%

* * *

Target: PTPRQ (Homo sapiens, UniProt Q9UMZ3)
Construct: The catalytic domain of PTPRQ (PTPRQ-C, residues 2661–2948) was subcloned into pET28a; His tag; made in house; host or cells: Escherichia coli BL21 (DE3)
Sequence (Q9UMZ3 2015-2302 limits assumed): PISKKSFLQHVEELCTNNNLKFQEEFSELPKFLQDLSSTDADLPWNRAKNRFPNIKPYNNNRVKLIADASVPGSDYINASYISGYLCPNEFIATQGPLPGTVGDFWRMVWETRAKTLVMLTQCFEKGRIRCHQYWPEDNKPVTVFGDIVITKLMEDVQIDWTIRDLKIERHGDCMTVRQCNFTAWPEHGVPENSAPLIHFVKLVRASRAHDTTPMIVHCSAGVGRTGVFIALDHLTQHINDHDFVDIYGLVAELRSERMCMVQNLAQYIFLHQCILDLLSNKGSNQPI
Test: PTPRQ enzyme inhibition assay monitoring hydrolysis of pNPP
Type: biochemical
Conditions: pNPP 5 mM substrate, 1.5 μM PTPRQ-C, pH 6.0, 60 minutes; read-out: IC50 against PTPRQ
Rule: IC50 below 70 µM gives met, anything at or above gives not met.

TEST SMILES: CN1C(=O)/C(=C/c2ccc(OCc3cccc([N+](=O)[O-])c3)cc2)S/C1=N/c1cccc(C(=O)O)c1
ASSIGNED CATEGORY: met
--
TEST SMILES: O=C(O)CCN1C(=O)/C(=C\c2cccc(Oc3ccccc3)c2)SC1=S
ASSIGNED CATEGORY: met
--
TEST SMILES: O=C1NC(=S)S/C1=C\c1cn(-c2ccccc2)nc1-c1ccccc1
ASSIGNED CATEGORY: not met
--
TEST SMILES: COc1cccc(-c2nn(-c3ccccc3)cc2/C=C2\SC(=S)N(CCC(=O)O)C2=O)c1
ASSIGNED CATEGORY: met
--
TEST SMILES: COC(=O)c1cccc(-c2ccc(/C=C3\C(=O)N(c4cccc(C(=O)O)c4)N=C3C)o2)c1
ASSIGNED CATEGORY: not met

Hello, the source for this data is paper PMC3765866, in case you need it.
